Each entry below lists one item and its recorded change in vivo at 3 mg/kg value.
# System: anesthetized rats
# ASSAY_SUMMARY: Anesthetized rat spirometry screening assay (ventilatory activity, minute volume)
# Type: in vivo
# RUN_PARAMETERS: 3.0 mg/kg IV bolus, increase in minute volume (VE), read-out: VE % Inc @ 3.0 mg/kg IV
Counter-ions that a name gives are not always drawn.

{"MOLECULE": "C=CCNc1nc(NC)c2nc(NC[C@H](C)O)nc(NC)c2n1", "change in vivo at 3 mg/kg / %": 150}
{"MOLECULE": "CNc1nc(NC[C@H](C)O)nc2c(NC)nc(N)nc12", "change in vivo at 3 mg/kg / %": 89}
{"MOLECULE": "CCCNc1nc(NCC)c2nc(NCC(C)(C)O)nc(NCC)c2n1", "change in vivo at 3 mg/kg / %": 144}
{"MOLECULE": "CCCNc1nc(NC)nc2c(N[C@H]3CCCC[C@H]3O)nc(NC)nc12", "change in vivo at 3 mg/kg / %": 132}
{"MOLECULE": "CNc1nc(NCC(C)(C)O)nc2c(NC)nc(NCc3ncccn3)nc12", "change in vivo at 3 mg/kg / %": 10}
{"MOLECULE": "CCCNc1nc(NC)c2nc(N[C@H]3CCCC[C@@H]3O)nc(NC)c2n1", "change in vivo at 3 mg/kg / %": 111}
{"MOLECULE": "CC[C@H](C)Nc1nc(NC)c2nc(NC[C@@H](C)O)nc(NC)c2n1", "change in vivo at 3 mg/kg / %": 98}
{"MOLECULE": "CCCNc1nc(NC)nc2c(N[C@@H]3CCC[C@H]3O)nc(NC)nc12", "change in vivo at 3 mg/kg / %": 129}
{"MOLECULE": "CCCNc1nc(NC)nc2c(N[C@@H]3CCCC[C@@H]3O)nc(NC)nc12", "change in vivo at 3 mg/kg / %": 184}
{"MOLECULE": "CCCNc1nc(NC)nc2c(N(C)CC(C)(C)O)nc(NC)nc12", "change in vivo at 3 mg/kg / %": 71}
{"MOLECULE": "CC[C@H](C)Nc1nc(NC)c2nc(NCC(C)(C)O)nc(NC)c2n1", "change in vivo at 3 mg/kg / %": 99}
{"MOLECULE": "CCCNc1nc(NC)c2nc(NCC(O)C(F)(F)F)nc(NC)c2n1 (stereo not drawn)", "change in vivo at 3 mg/kg / %": 105}
{"MOLECULE": "CCCNc1nc(NC)c2nc(NCC(O)CO)nc(NC)c2n1 (stereo not drawn)", "change in vivo at 3 mg/kg / %": 38}
{"MOLECULE": "CC[C@@H](C)Nc1nc(NC)c2nc(NC[C@@H](C)O)nc(NC)c2n1", "change in vivo at 3 mg/kg / %": 139}
{"MOLECULE": "CCNc1nc(NCC(C)(C)O)c2nc(NCC)nc(NCC)c2n1 [Compound 49a, Hydrochloride]", "change in vivo at 3 mg/kg / %": 183}
{"MOLECULE": "C=C(C)CNc1nc(NC)c2nc(NC[C@@H](C)O)nc(NC)c2n1", "change in vivo at 3 mg/kg / %": 120}
{"MOLECULE": "CNc1nc(NCC(C)(C)O)c2nc(NC)nc(NCC3CC3)c2n1 [Compound 46a, Hydrochloride]", "change in vivo at 3 mg/kg / %": 203}
{"MOLECULE": "CCCNc1nc(NC)c2nc(N[C@@H]3CCCC[C@@H]3O)nc(NC)c2n1", "change in vivo at 3 mg/kg / %": 142}
{"MOLECULE": "CCCNc1nc(NC)c2nc(N[C@@H]3c4ccccc4C[C@H]3O)nc(NC)c2n1", "change in vivo at 3 mg/kg / %": 68}
{"MOLECULE": "CCCNc1nc(NCC(F)F)nc2c(NCC(C)(C)O)nc(NCC(F)F)nc12 [Compound 33a, Hydrochloride]", "change in vivo at 3 mg/kg / %": 115}
{"MOLECULE": "CCCNc1nc(NC)nc2c(N3CCC(O)C3)nc(NC)nc12 (stereo not drawn) [Compound 71a, Hydrochloride]", "change in vivo at 3 mg/kg / %": 84}
{"MOLECULE": "CCCNc1nc(NC)nc2c(NC3Cc4ccccc4C3O)nc(NC)nc12 (racemic)", "change in vivo at 3 mg/kg / %": 72}
{"MOLECULE": "CCCNc1nc(NC)c2nc(N[C@@H]3c4ccccc4C[C@@H]3O)nc(NC)c2n1", "change in vivo at 3 mg/kg / %": 129}
{"MOLECULE": "CNc1nc(NC[C@@H](C)O)nc2c(NC)nc(NCC3CC3)nc12", "change in vivo at 3 mg/kg / %": 98}
{"MOLECULE": "CCCNc1nc(NC)nc2c(NCC(O)CO)nc(NC)nc12 (stereo not drawn) [Compound 75a, Hydrochloride]", "change in vivo at 3 mg/kg / %": 180}
{"MOLECULE": "CC[C@@H](C)Nc1nc(NC)c2nc(NC[C@H](C)O)nc(NC)c2n1", "change in vivo at 3 mg/kg / %": 129}
{"MOLECULE": "C=CCNc1nc(NC)c2nc(NC[C@@H](C)O)nc(NC)c2n1", "change in vivo at 3 mg/kg / %": 156}
{"MOLECULE": "CNc1nc(NCc2ccccc2)c2nc(NC)nc(NCCO)c2n1 [Compound 64a, Hydrochloride]", "change in vivo at 3 mg/kg / %": 157}
{"MOLECULE": "CCNc1nc(NC)nc2c(NCCCO)nc(NC)nc12 [Compound 67a, Hydrochloride]", "change in vivo at 3 mg/kg / %": 136}
{"MOLECULE": "CCC(O)CNc1nc(NC)c2nc(NCC3CC3)nc(NC)c2n1 (stereo not drawn)", "change in vivo at 3 mg/kg / %": 121}
{"MOLECULE": "CCCNc1nc(NC)c2nc(N[C@H]3CCC[C@@H]3O)nc(NC)c2n1", "change in vivo at 3 mg/kg / %": 114}
{"MOLECULE": "CCCNc1nc(NCC)c2nc(NCCO)nc(NCC)c2n1", "change in vivo at 3 mg/kg / %": 216}
{"MOLECULE": "CNc1nc(NC[C@H](C)O)nc2c(NC)nc(NCC3CC3)nc12", "change in vivo at 3 mg/kg / %": 62}
{"MOLECULE": "CNc1nc(N(C)C)nc2c(NC)nc(NCCO)nc12", "change in vivo at 3 mg/kg / %": 148}
{"MOLECULE": "CCCNc1nc(NC)nc2c(NCC(O)(CC)CC)nc(NC)nc12 [Compound 74a, Hydrochloride]", "change in vivo at 3 mg/kg / %": 208}
{"MOLECULE": "C=CCNc1nc(NC)c2nc(N(C)C[C@H](C)O)nc(NC)c2n1", "change in vivo at 3 mg/kg / %": 97}

The reported numbers originate from patent US10294228B2.
